- System: K. pneumoniae
- testMethodNotes: MIC by broth microdilution (CLSI), K. pneumoniae
- Type: cell-based
- reportedConditions: Klebsiella pneumoniae, broth microdilution, cation adjusted Mueller-Hinton Broth, 35° C., 18-24 h; read-out: K. pneumoniae MIC
Known MIC of a selection of compounds

Answered examples (6):
O=C(NCC(F)F)C(Cc1ccc(C#Cc2ccc(C(F)(F)F)nc2)cc1)c1nc[nH]c(=O)c1O (centres unmarked): > 32 µg/mL
CC(C)C#CC#Cc1ccc(CC(C(=O)NCC(F)F)c2nc[nH]c(=O)c2O)cc1F (centres unmarked): 8 to 32 µg/mL
CO/N=C(\C)C(Cc1ccc(C#Cc2ccc(CN3CCOCC3)cc2)cc1)c1ncnc(O)c1O (centres unmarked): > 32 µg/mL
O=c1[nH]cnc(CCc2ccc(C#Cc3ccc(CN4CCOCC4)cc3)cn2)c1O: 1 to 8 µg/mL
O=C(NCC(F)F)C(Cc1ccc(C#Cc2cnc(C(F)(F)F)nc2)cc1)c1nc[nH]c(=O)c1O (centres unmarked): > 32 µg/mL
O=C(Cc1nc[nH]c(=O)c1O)N1CCC(C#Cc2ccc(CN3CCOCC3)cc2)CC1: > 32 µg/mL

In: Quick one: MIC of O=c1[nH]cnc(CCc2ccc(C#Cc3ccc(CNC4CC(O)C4)cc3)cn2)c1O (centres unmarked) ?
Out: > 32 µg/mL

In: Please report the recorded MIC for O=c1[nH]cnc(C(CNCCF)Cc2ccc(C#Cc3ccc(CN4CCOCC4)cn3)cc2)c1O (centres unmarked) .
Out: > 32 µg/mL

###

- Test system: K. pneumoniae
- testMethodNotes: MIC by broth microdilution (CLSI), K. pneumoniae
- Format: cell-based
- reportedConditions: Klebsiella pneumoniae, broth microdilution, cation adjusted Mueller-Hinton Broth, 35° C., 18-24 h; read-out: K. pneumoniae MIC
measuredParameter: MIC

O=c1[nH]cnc(CCN2CCC(C#Cc3ccc(CN4CCOCC4)cc3)CC2)c1O: > 32 µg/mL
CC(C)C#CC#Cc1ccc(CC(CNCCF)c2nc[nH]c(=O)c2O)cc1 (centres unmarked): 8 to 32 µg/mL
O=c1[nH]cnc(CCc2ccc(C#Cc3ccncc3)cc2)c1O: > 32 µg/mL
C=CCNCC(Cc1ccc(C#CC#Cc2cnn(C)c2)cc1)c1nc[nH]c(=O)c1O (centres unmarked): 8 to 32 µg/mL
Nc1ccc(C#Cc2ccc(CC(C(=O)NCC(F)F)c3nc[nH]c(=O)c3O)cc2)cn1 (centres unmarked): > 32 µg/mL

In: Item O=c1[nH]cnc(C2CC2c2ccc(C#Cc3ccc(CN[C@@H]4CCNC4)cc3)cc2)c1O (some centres unmarked) has what recorded MIC?
Out: > 32 µg/mL

In: Given the compound COC(=O)NCC(Cc1ccc(C#Cc2ccc(CN3CCOCC3)cc2)cn1)c1nc[nH]c(=O)c1O (centres unmarked) , what is its reported MIC?
Out: > 32 µg/mL

In: Which MIC is listed for O=c1[nH]cnc(Cn2ccc3cc(C#Cc4ccc(CN5CCOCC5)cc4)cnc32)c1O ?
Out: > 32 µg/mL

In: Fill blank: measured MIC of the compound CC(=O)NCC(Cc1ccc(C#CC#CC2CC2)c(F)c1)c1nc[nH]c(=O)c1O (centres unmarked) is ____.
Out: 1 to 8 µg/mL

In: Can you share its MIC? I mean this compound: N#CCC(Cc1ccc(C#Cc2ccc(CN3CCOCC3)cc2)cc1)c1nc[nH]c(=O)c1O (centres unmarked)
Out: 1 to 8 µg/mL

###

- Tested on: K. pneumoniae
- testMethodNotes: MIC by broth microdilution (CLSI), K. pneumoniae
- Type: cell-based
- reportedConditions: Klebsiella pneumoniae, broth microdilution, cation adjusted Mueller-Hinton Broth, 35° C., 18-24 h; read-out: K. pneumoniae MIC
Measured MIC values are reported for all entries that follow.

Solved cases (7 shown):
O=C(NCC(F)F)C(Cc1ccc(-c2ccc(-n3cccn3)cc2)cc1)c1nc[nH]c(=O)c1O (centres unmarked) [Compound 38]: > 32 mg/L
CC(Cc1ccc(C#Cc2ccc(CN3CCOCC3)cc2)cc1)c1nc[nH]c(=O)c1O (centres unmarked) [Compound 104]: 1 to 8 mg/L
O=c1[nH]cnc(CCc2ccc(C#Cc3ccc(CN4CCOCC4)cn3)cc2)c1O [Compound 16]: 1 to 8 mg/L
N#Cc1ccc(-c2ccc(CC(C(=O)NCC(F)F)c3nc[nH]c(=O)c3O)cc2)cc1 (centres unmarked) [Compound 39]: > 32 mg/L
O=c1ccoc(CC(CO)c2ccc(C#Cc3ccc(CN4CCOCC4)cc3)cc2)c1O (centres unmarked) [Compound 137]: 1 to 8 mg/L
O=C(NCCO)c1ccc(C#CC#Cc2ccc(CC(CO)c3nc[nH]c(=O)c3O)cc2)cc1 (centres unmarked) [Compound 32]: 1 to 8 mg/L
O=C(OC1CCSC1)C(Cc1ccc(C#Cc2ccc(CN3CCOCC3)cc2)cc1)c1nc[nH]c(=O)c1O (centres unmarked) [Compound 115]: > 32 mg/L

--- query ---
In: Please look up its MIC: O=c1[nH]cnc(C(CNCCF)Cc2ccc(C#CC#CC3CC3)cc2)c1O (centres unmarked) [Compound 68]
Out: > 32 mg/L

###

Collected MIC values appear next to each entry.
- System: K. pneumoniae
- testMethodNotes: MIC by broth microdilution (CLSI), K. pneumoniae
- Format: cell-based
- reportedConditions: Klebsiella pneumoniae, broth microdilution, cation adjusted Mueller-Hinton Broth, 35° C., 18-24 h; read-out: K. pneumoniae MIC

// solved cases for MIC follow
C=C(Cc1ccc(C#Cc2ccc(CN3CCOCC3)cc2)cc1)c1nc[nH]c(=O)c1O: 1 to 8 µg/mL
O=c1[nH]cnc(C(CCl)Cc2ccc(C#Cc3ccc(CN4CCOCC4)cc3)cc2)c1O (stereo not shown): 8 to 32 µg/mL
OCC(Cc1nccc(O)c1O)c1ccc(C#Cc2ccc(CN3CCOCC3)cc2)cc1 (stereo not shown): > 32 µg/mL
CC(=O)NCC(Cc1ccc(C#Cc2ccc(CN3CCOCC3)cc2)cc1)c1c(O)cn[nH]c1=O (stereo not shown): > 32 µg/mL

In: Tell me the measured MIC of C=CCNCC(Cc1ccc(C#CC#Cc2cnc(C)nc2)cc1)c1nc[nH]c(=O)c1O (stereo not shown) , please.
Out: > 32 µg/mL

In: GET /values?readout=MIC&item= O=c1[nH]cnc(CCc2ccc(C#Cc3ccc(CNC4CCOC4)cc3)cn2)c1O (stereo not shown)
Out: 8 to 32 µg/mL

In: Using the record for O=c1[nH]cnc(C2(Cn3ccc(C#Cc4ccc(CN5CCOCC5)cc4)cc3=O)CC2)c1O , report its MIC.
Out: > 32 µg/mL

Data provenance: patent US20220081421A1
